Overview of recorded folding stability dG for various variants
B1: EEHEE_rd3_1049 (parent)
chain: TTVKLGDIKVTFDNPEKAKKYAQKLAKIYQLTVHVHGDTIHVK

variants of: B1; test: folding stability dG (cDNA display proteolysis); higher = more stable; settings: PBS, room temperature

| record sequence | folding stability dG [kcal/mol] |
| --- | --- |
| TCVKLGDIKVTFDNPEKAKKYAQKLAKIYQLTVHVHGDTIHVK [T2C] | 2.33 |
| TTVKLGDIKVTFDNPEKAKKYAQKLAKIYQLTVHVHGDTIHVL [K43L] | 2.57 |
| TTVKLGDIKVTFPNPEKAKKYAQKLAKIYQLTVHVHGDTIHVK [D13P] | 1.58 |
| ATVKLGDIKVTFDNPEKAKKYAQKLAKIYQLTVHVHGDTIHVK [T1A] | 1.43 |
| TTVKLGDIKVTFDNPEKAKKYAQKLAKIYQLCVHVHGDTIHVK [T32C] | 2.77 |
| LTVKLGDIKVTFDNPEKAKKYAQKLAKIYQLTVHVHGDTIHVK [T1L] | 1.76 |
| TTVKLGDIKVTFDNPEKAKKYAQKLAKIYQLTAHVHGDTIHVK [V33A] | 0.869 |
